tested on: 388556-164-R-J1-PDC complex spheroid viability; assay: Anticancer human tumor 388556-164-R-J1-PDC patient-derived colon adenocarcinoma cell line growth inhibition [RAS]; settings: compound 3.16 µM; hits give low values;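 note: spheroids exposed to compound for 7 days before readout; 100% = DMSO vehicle control luminescence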
measurement.name: viability, T/C

Entry Cc1nc(N2CCC3(CC2)COC(C)C3N)c(CO)nc1Sc1ccnc(N)c1Cl (configuration not stated) , viability, T/C reported as 53.9% [middle of 4 runs]

Entry C#Cc1c(F)ccc2cc(O)cc(-c3ncc4c(N5CC6CCC(C5)N6)nc(OCC56CCCN5CC(F)C6)nc4c3F)c12 (configuration not stated) , viability, T/C reported as 87.3% [middle of 7 runs]

Entry NC1c2ccccc2OC12CCN(c1cnc3c(N4CCCc5ncccc54)n[nH]c3n1)CC2 (configuration not stated) , viability, T/C reported as 43.6% [middle of 4 runs]

Entry CC(Nc1ccc2c(c1)OCCn1cc(N3C(=O)OCC3C(F)F)nc1-2)C(N)=O (configuration not stated) , viability, T/C reported as 74.9% [middle of 4 runs]

Entry CC(C)NCC(C(=O)N1CCN(c2ncnc3c2C(C)CC3O)CC1)c1ccc(Cl)cc1 (configuration not stated) , viability, T/C reported as 100% [middle of 4 runs]

Entry C[C@@H](NC(=O)c1ncnc(N)c1Cl)c1ncc(C(=O)Nc2cc(C(F)(F)F)c(Cl)cn2)s1 , viability, T/C reported as 116% [middle of 4 runs]

Entry CC(=O)OC12COC1CC(O)C1(C)C(=O)C(O)C3=C(C)C(OC(=O)C(O)C(NC(=O)OC(C)(C)C)c4ccccc4)CC(O)(C(OC(=O)c4ccccc4)C21)C3(C)C (configuration not stated) , viability, T/C reported as 78.5% [middle of 4 runs]
